Listed compounds paired with reported IC50
molecular target: GDP-bound KRAS protein (aa 1-169), containing both G12C and C118A amino acid substitutions (Homo sapiens (Human), UniProt P01116, C118A/G12C); test: Coupled nucleotide exchange assay (SOS-mediated nucleotide exchange, AlphaScreen); assay type: biochemical; details: read-out: Coupled exchange IC50 (5 min; μM); 5 min compound pre-incubation
Sequence (P01116 other isoform, or with tags, fused parts or gaps G12C/C118A): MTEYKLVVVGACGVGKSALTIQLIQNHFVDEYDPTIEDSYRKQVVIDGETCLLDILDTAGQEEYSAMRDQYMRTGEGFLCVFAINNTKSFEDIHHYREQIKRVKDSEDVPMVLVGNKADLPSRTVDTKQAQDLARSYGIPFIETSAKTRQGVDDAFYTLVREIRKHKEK
observation_type: IC50 (µM)

compound: C=CC(=O)N1C[C@H](C)N(c2nc(=O)n(-c3c(C(C)C)ncnc3C3CC3)c3nc(-c4ccccc4C)c(Cl)cc23)C[C@H]1C (single isomer, unassigned) [Example 108-2-1]
observation_type: IC50
assay_value: 0.035

compound: C=CC(=O)N1C[C@H](C)N(c2nc(=O)n(-c3ccccc3P(C)(C)=O)c3nc(-c4ccccc4F)c(Cl)cc23)C[C@H]1C [Example 55-55]
observation_type: IC50
assay_value: 3.14

compound: C=CC(=O)N1C[C@H](C)N(c2nc(=O)n(-c3c(C)ccnc3C(C)C)c3nc(-c4ccccc4C(N)=O)c(Cl)cc23)C[C@H]1C (atropisomer, axis not shown; (M)) [Example 92-21]
observation_type: IC50
assay_value: 0.051

compound: C=CC(=O)N1C[C@H](C)N(c2nc(=O)n(-c3c(N(CC)CC)ccnc3C(C)C)c3nc(-c4ccccc4C(C)C)c(Cl)cc23)C[C@H]1C (single isomer, unassigned) [Example 103-6-2]
observation_type: IC50
assay_value: 0.112

compound: C=CC(=O)N1C[C@H](C)N(c2nc(=O)n(-c3c(C)ccnc3C(C)C)c3nc(-c4cccc5c4NC(=O)C5)c(Cl)cc23)C[C@H]1C (atropisomer, axis not shown; (M)) [Example 92-20]
observation_type: IC50
assay_value: 0.403

* * *

molecular target: GDP-bound KRAS protein (aa 1-169), containing both G12C and C118A amino acid substitutions (Homo sapiens (Human), UniProt P01116, C118A/G12C); assay: Coupled nucleotide exchange assay (SOS-mediated nucleotide exchange, AlphaScreen); assay type: biochemical; conditions: read-out: Coupled exchange IC50 (5 min; μM); 5 min compound pre-incubation
Quick reference for IC50 among some molecules

molecule: C=CC(=O)N1C[C@H](C)N(c2nc(=O)n3c4nc(c(Cl)cc24)-c2ccccc2C/C=C\Cc2cccc(C(C)C)c2-3)C[C@H]1C (single isomer, unassigned) [Example 146-2-2]
IC50: 0.061 µM
--
molecule: C=CC(=O)N1C[C@H](C)N(c2nc(=O)n(-c3c(C(C)C)nc(N(C)C)nc3C(C)C)c3nc(-c4ccccc4F)c(Cl)cc23)C[C@H]1C
IC50: 0.098 µM
--
molecule: C=CC(=O)N1C[C@H](C)N(c2nc(=O)n(-c3c(C)ccnc3C(C)C)c3nc(-c4ccccc4P(C)(C)=O)c(F)cc23)C[C@H]1C (atropisomer, axis not shown; (M))
IC50: 0.647 µM

* * *

target: GDP-bound KRAS protein (aa 1-169), containing both G12C and C118A amino acid substitutions (Homo sapiens (Human), UniProt P01116, C118A/G12C); experiment: Coupled nucleotide exchange assay (SOS-mediated nucleotide exchange, AlphaScreen); format: biochemical; details: read-out: Coupled exchange IC50 (5 min; μM); 5 min compound pre-incubation

molecule: C=CC(=O)N1C[C@H](C)N(c2nc(=O)n(-c3c(C)ccnc3C(C)C)c3nc(-c4c(F)cccc4NC(=O)OC)c(Cl)cc23)C[C@H]1C (atropisomer, axis not shown; (M))
IC50 / µM: 0.056

molecule: C=CC(=O)N1C[C@H](C)N(c2nc(=O)n(-c3c(CN4CCCC4)cccc3C(C)C)c3nc(-c4ccccc4F)c(Cl)cc23)C[C@H]1C [Example 80-10]
IC50 / µM: 0.077

molecule: C=CC(=O)N1C[C@H](C)N(c2nc(=O)n(-c3c(C)ccnc3C(C)C)c3nc(-c4ncccc4C)c(Cl)cc23)C[C@H]1C (atropisomer, axis not shown; (M))
IC50 / µM: 0.345

* * *

target: GDP-bound KRAS protein (aa 1-169), containing both G12C and C118A amino acid substitutions (Homo sapiens (Human), UniProt P01116, C118A/G12C); assay: Coupled nucleotide exchange assay (SOS-mediated nucleotide exchange, AlphaScreen); format: biochemical; details: 5 min compound pre-incubation

compound: C=CC(=O)N1C[C@H](C)N(c2nc(=O)n(-c3c(N)ncnc3C(C)C)c3nc(-c4ccccc4F)c(Cl)cc23)C[C@H]1C (single isomer, unassigned) [Example 189-2]
Coupled exchange IC50 (5 min; μM) (µM): 14.7
//
compound: C=CC(=O)N1C[C@H](C)N(c2nc(=O)n(-c3c(C(C)C)cnnc3C(C)C)c3nc(-c4ccccc4F)c(Cl)cc23)C[C@H]1C (single isomer, unassigned) [Example 205-2]
Coupled exchange IC50 (5 min; μM) (µM): 0.078
//
compound: C=CC(=O)N1CCN(c2nc(=O)n(CC(C)(C)O)c3nc(-c4ccccc4F)c(Cl)cc23)CC1 [Example 180]
Coupled exchange IC50 (5 min; μM) (µM): 85.1
//
compound: C=CC(=O)N1C[C@H](C)N(c2nc(=O)n(-c3c(C)ccnc3C(C)C)c3nc(-c4ccccc4S(C)(=O)=O)c(Cl)cc23)C[C@H]1C [Example 210]
Coupled exchange IC50 (5 min; μM) (µM): 0.049
//
compound: C=CC(=O)N1C[C@H](C)N(c2nc(=O)n(-c3c(C)cc(C4CC4)nc3C(C)C)c3nc(-c4ccccc4F)c(Cl)cc23)C[C@H]1C (single isomer, unassigned) [Example 164-2]
Coupled exchange IC50 (5 min; μM) (µM): 3.44

* * *

target: GDP-bound KRAS protein (aa 1-169), containing both G12C and C118A amino acid substitutions (Homo sapiens (Human), UniProt P01116, C118A/G12C); test: Coupled nucleotide exchange assay (SOS-mediated nucleotide exchange, AlphaScreen); type: biochemical; details: read-out: Coupled exchange IC50 (5 min; μM); 5 min compound pre-incubation
Classification by IC50 follows these ranges: low (below 0.09 µM), middle (0.09 µM to below 0.7 µM), high (0.7 µM or more)

molecule: C=CC(=O)N1C[C@H](C)N(c2nc(=O)n(-c3c(C)ccnc3C(C)C)c3nc(-c4cc(F)cc(F)c4N)c(Cl)cc23)C[C@H]1C (atropisomer, axis not shown; (M))
assigned_label: middle

molecule: C=CC(=O)N1C[C@H](C)N(c2nc(=O)n(-c3c(C(C)C)nc(-c4ccoc4)nc3C(C)C)c3nc(-c4ccccc4F)c(Cl)cc23)C[C@H]1C
assigned_label: middle

molecule: C=CC(=O)N1C[C@H](C)N(c2nc(=O)n(-c3c(C)ccnc3C(C)C)c3nc(-c4ccccc4NC)c(Cl)cc23)C[C@H]1C (atropisomer, axis not shown; (M))
assigned_label: low

molecule: C=CC(=O)N1C[C@H](C)N(c2nc(=O)n(-c3c(CN(C)C)ncnc3C(C)C)c3nc(-c4ccccc4F)c(Cl)cc23)C[C@H]1C (single isomer, unassigned) [Example 80-18-1]
assigned_label: high

molecule: C=CC(=O)N1C[C@H](C)N(c2nc(=O)n(-c3c(CN(C)C)ncnc3C(C)C)c3nc(-c4ccccc4F)c(Cl)cc23)C[C@H]1C (single isomer, unassigned) [Example 80-18-2]
assigned_label: middle

molecule: C=CC(=O)N1C[C@H](C)N(c2nc(=O)n(-c3c(Cl)ncnc3C(C)C)c3nc(-c4ccccc4C)c(Cl)cc23)C[C@H]1C (single isomer, unassigned) [Example 102-6-1]
assigned_label: middle

molecule: C=CC(=O)N1C[C@H](C)N(c2nc(=O)n(-c3c(C)ccnc3C(C)C)c3nc(N4CCCCC4)c(Cl)cc23)C[C@H]1C (atropisomer, axis not shown; (M))
assigned_label: high

molecule: CC#CC(=O)N1C[C@H](C)N(c2nc(=O)n(-c3c(C)ccnc3C(C)C)c3nc(-c4ccccc4F)c(F)cc23)C[C@H]1C
assigned_label: high

molecule: C=CC(=O)N1C[C@H](C)N(c2nc(=O)n(-c3c(Cl)ccnc3C(C)C)c3nc(OC)c(-c4ccccc4F)cc23)C[C@H]1C
assigned_label: high

molecule: C=CC(=O)N1C[C@H](C)N(c2nc(=O)n(-c3c(C(C)C)ncn(C)c3=O)c3nc(-c4ccccc4F)c(Cl)cc23)C[C@H]1C
assigned_label: low

molecule: C=CC(=O)N1C[C@H](C)N(c2nc(=O)n(-c3c(C)ccnc3C(C)C)c3nc(-c4ccccc4[N+](=O)[O-])c(Cl)cc23)C[C@H]1C (atropisomer, axis not shown; (M))
assigned_label: middle

molecule: C=CC(=O)N1C[C@H](C)N(c2nc(=O)n(-c3c(C)ccnc3C(C)C)c3nc(-c4cc(OC)cc5ccccc45)c(F)cc23)C[C@H]1C (atropisomer, axis not shown; (M))
assigned_label: high

molecule: C=CC(=O)N1C[C@H](C)N(c2nc(=O)n(-c3c(C)ccnc3C(C)C)c3nc(-c4cccc(F)c4F)c(Cl)cc23)C[C@H]1C (atropisomer, axis not shown; (M))
assigned_label: low

molecule: C=CC(=O)N1C[C@H](C)N(c2nc(=O)n(-c3c(C(C)C)nc(CN4CCN(C)CC4)nc3C(C)C)c3nc(-c4ccccc4F)c(Cl)cc23)C[C@H]1C
assigned_label: low

molecule: C=CC(=O)N1C[C@H](C)N(c2nc(=O)n(-c3c(C)cc(CN(C)C)cc3C(C)C)c3nc(-c4c(O)cccc4F)c(F)cc23)C[C@H]1C [Example 80-21]
assigned_label: middle

molecule: C=CC(=O)N1C[C@H](C)N(c2nc(=O)n(-c3c(Cl)ncnc3C(C)C)c3nc(-c4ccccc4C)c(Cl)cc23)C[C@H]1C (single isomer, unassigned) [Example 102-6-2]
assigned_label: high

molecule: C=CC(=O)N1C[C@H](C)N(c2nc(=O)n(-c3c(C)ccnc3C(C)C)c3nc(-c4cc(F)c(F)cc4O)c(Cl)cc23)C[C@H]1C (atropisomer, axis not shown; (M))
assigned_label: low

molecule: C=CC(=O)N1C[C@H](C)N(c2nc(=O)n(-c3c(CC)ncnc3C(C)C)c3nc(-c4ccccc4C)c(Cl)cc23)C[C@H]1C (single isomer, unassigned) [Example 109-2-1]
assigned_label: low

molecule: C=CC(=O)N1C[C@H](C)N(c2nc(=O)n(-c3c(C)cc(CN(C)C)cc3C(C)C)c3nc(-c4c(O)cccc4F)c(F)cc23)C[C@H]1C (single isomer, unassigned) [Example 80-21-1]
assigned_label: high

molecule: C=CC(=O)N1C[C@H](C)N(c2nc(=O)n(-c3c(C)ccnc3C(C)C)c3nc(-c4ccccc4C(=O)NC)c(Cl)cc23)C[C@H]1C (atropisomer, axis not shown; (M))
assigned_label: middle
